target-or-test-system: Cytochrome P450 2D6 (Homo sapiens) (UniProt P10635)
Sequence (P10635 whole entry, looked up): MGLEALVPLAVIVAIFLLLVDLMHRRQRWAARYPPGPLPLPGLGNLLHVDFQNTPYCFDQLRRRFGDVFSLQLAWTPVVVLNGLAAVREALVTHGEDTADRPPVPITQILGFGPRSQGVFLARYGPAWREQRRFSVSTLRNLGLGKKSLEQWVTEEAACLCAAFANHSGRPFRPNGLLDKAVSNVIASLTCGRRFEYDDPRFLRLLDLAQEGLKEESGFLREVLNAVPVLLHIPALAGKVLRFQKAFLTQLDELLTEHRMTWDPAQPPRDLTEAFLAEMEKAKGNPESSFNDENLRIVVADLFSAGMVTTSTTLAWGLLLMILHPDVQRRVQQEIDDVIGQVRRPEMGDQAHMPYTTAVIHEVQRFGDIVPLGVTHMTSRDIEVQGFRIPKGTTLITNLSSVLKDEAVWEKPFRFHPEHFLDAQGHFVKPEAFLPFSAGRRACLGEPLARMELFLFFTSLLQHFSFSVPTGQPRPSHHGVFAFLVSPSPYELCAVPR
assay-overview: Cytochrome P450 family 2 subfamily D member 6 (CYP2D6) small molecule antagonists: luciferase biochemical (cell-free) qHTS assay (AID 1645840); note: nearly all actives have a fitted effect of over 55% in size
experimental-setup: P450-Glo CYP2D6 enzyme, luciferin luminescence, 1 h; series mostly up to 57.4 µM
Inconclusive results are not listed. Calls of active or inactive are those of the source. Calls come from the whole dose curve; as a rule, active = well fitted inhibition curve with a large enough effect in the repeat runs; inconclusive = weak or mixed curves; inactive = flat fitted curve, though single readings scatter. Non-standard residues stand in square brackets, D forms with d. Residues, ends and D or L forms follow the SMILES beside them. *: point of attachment. Sta = CC(C)C[C@H](N)[C@@H](O)CC(=O)O; Isovaleryl = CC(C)CC(=O)*
The reply should name one outcome from active, inactive

Q) Returns: the outcome recorded for COCCCOc1ccnc(CS(=O)c2nc3ccccc3[nH]2)c1C (stereo not drawn) in this assay.
A) inactive

Q) Returns: the outcome recorded for Nc1ccn([C@@H]2O[C@H](CO)[C@@H](O)C2O)c(=O)n1 (stereo partly drawn) in this assay.
A) inactive

Q) Returns: the outcome recorded for CC(S)C(=O)NCC(=O)O (stereo not drawn) in this assay.
A) inactive

Q) Returns: the outcome recorded for Cc1cc(C2CCCCC2)n(O)c(=O)c1 in this assay.
A) inactive

Q) Returns: the outcome recorded for Nc1nc(Cl)nc2c1ncn2[C@H]1C[C@H](O)[C@@H](CO)O1 in this assay.
A) inactive

Q) Returns: the outcome recorded for CCCOc1ccc2nc(NC(=O)OC)[nH]c2c1 in this assay.
A) inactive

Q) Returns: the outcome recorded for COC1=C(OC)C(=O)C(CCCCCCCCCCO)=C(C)C1=O in this assay.
A) active

Q) Returns: the outcome recorded for CCc1nc(N)nc(N)c1-c1ccc(Cl)cc1 in this assay.
A) active

Q) Returns: the outcome recorded for CN(C)c1ccc(O)c2c1C[C@H]1C[C@H]3[C@H](N(C)C)C(=O)C(C(N)=O)=C(O)[C@@]3(O)C(=O)C1=C2O in this assay.
A) inactive

Q) Returns: the outcome recorded for COc1cc(OC)c(C(=O)CCCN2CCCC2)c(OC)c1 in this assay.
A) active

Q) Returns: the outcome recorded for O=C(OC1C[C@H]2CC[C@@H](C1)[N+]21CCCC1)C(O)(c1ccccc1)c1ccccc1 (stereo partly drawn) in this assay.
A) active

Q) Returns: the outcome recorded for Cc1cccc(C)c1OCC(=O)N[C@@H](Cc1ccccc1)[C@@H](O)C[C@H](Cc1ccccc1)NC(=O)[C@H](C(C)C)N1CCCNC1=O in this assay.
A) active

Q) Returns: the outcome recorded for COc1cc(Nc2c(C#N)cnc3cc(OCCCN4CCN(C)CC4)c(OC)cc23)c(Cl)cc1Cl in this assay.
A) inactive

Q) Returns: the outcome recorded for O=C(NCCO[N+](=O)[O-])c1cccnc1 in this assay.
A) inactive

Q) Returns: the outcome recorded for CCN(CC)C(=S)SSC(=S)N(CC)CC in this assay.
A) inactive

Q) Returns: the outcome recorded for O=c1ccc2ccc(O)c(O)c2o1 in this assay.
A) inactive

Q) Returns: the outcome recorded for CC(C)c1ccc2oc3nc(N)c(C(=O)O)cc3c(=O)c2c1 in this assay.
A) active

Q) Returns: the outcome recorded for CC(C)CC(=O)N[C@H](C(=O)N[C@H](C(=O)N[C@@H](CC(C)C)[C@@H](O)CC(=O)N[C@@H](C)C(=O)N[C@@H](CC(C)C)[C@@H](O)CC(=O)O)C(C)C)C(C)C (Isovaleryl-VV[Sta]A[Sta]-OH) in this assay.
A) inactive

Q) Returns: the outcome recorded for C=C(c1ccc(C(=O)O)cc1)c1cc2c(cc1C)C(C)(C)CCC2(C)C in this assay.
A) inactive

Q) Returns: the outcome recorded for Cc1ccc(S(=O)(=O)NC(=O)NN2CC3CCCC3C2)cc1 (stereo not drawn) in this assay.
A) inactive

Q) Returns: the outcome recorded for Oc1ccc(OCc2ccccc2)cc1 in this assay.
A) active

Q) Returns: the outcome recorded for Cc1cc2c(s1)Nc1ccccc1N=C2N1CCN(C)CC1 in this assay.
A) inactive

Q) Returns: the outcome recorded for Cc1nc2n(c(=O)c1CCN1CCC(c3noc4cc(F)ccc34)CC1)CCCC2 in this assay.
A) active

Q) Returns: the outcome recorded for CCN(CC)CCOc1ccc(Cc2ccccc2)cc1 in this assay.
A) active

Q) Returns: the outcome recorded for S=c1nc[nH]c2nc[nH]c12 in this assay.
A) inactive

Q) Returns: the outcome recorded for CCC[C@@H]1C[C@@H](C(=O)N[C@@H]([C@H]2O[C@H](SC)[C@H](O)[C@@H](O)[C@H]2O)[C@@H](C)O)N(C)C1 in this assay.
A) inactive

Q) Returns: the outcome recorded for CC(C)[C@H](N)C(=O)OCCOCn1cnc2c(=O)[nH]c(N)nc21 in this assay.
A) inactive

Q) Returns: the outcome recorded for Cc1nc(Nc2ncc(C(=O)Nc3c(C)cccc3Cl)s2)cc(N2CCN(CCO)CC2)n1 in this assay.
A) inactive

Q) Returns: the outcome recorded for Cc1cc(=O)oc2cc(O)ccc12 in this assay.
A) inactive

Q) Returns: the outcome recorded for Cc1cc2cc3c(C)cc(=O)oc3c(C)c2o1 in this assay.
A) inactive

Q) Returns: the outcome recorded for O=C(O)c1cn(-c2ccc(F)cc2)c2cc(N3CCNCC3)c(F)cc2c1=O in this assay.
A) inactive

Q) Returns: the outcome recorded for Nc1nc(N)c(N=O)c(OCC2CCCCC2)n1 in this assay.
A) inactive

Q) Returns: the outcome recorded for O=C(O)c1cc(=O)c2c(OCC(O)COc3cccc4oc(C(=O)O)cc(=O)c34)cccc2o1 in this assay.
A) inactive

Q) Returns: the outcome recorded for C[C@@H](c1ncncc1F)[C@](O)(Cn1cncn1)c1ccc(F)cc1F in this assay.
A) inactive

Q) Returns: the outcome recorded for O=Nc1c(-c2c(O)[nH]c3cc(Br)ccc23)[nH]c2ccccc12 in this assay.
A) active

Q) Returns: the outcome recorded for Cc1cc(=O)c2c(O)c3c(O)cc(=O)c4c3c3c(cc(O)c1c23)C(C)(C)C=4O in this assay.
A) inactive

Q) Returns: the outcome recorded for C=CCc1cc(OC)c(O)c(C(=O)NCCO)c1 in this assay.
A) inactive

Q) Returns: the outcome recorded for Nc1cc(C(Cl)=C(Cl)Cl)c(S(N)(=O)=O)cc1S(N)(=O)=O in this assay.
A) inactive

Q) Returns: the outcome recorded for CC(=O)NC[C@H]1CN(c2ccc(N3CCOCC3)c(F)c2)C(=O)O1 in this assay.
A) inactive

Q) Returns: the outcome recorded for Clc1ccc(C(Cn2ccnc2)OCc2ccsc2Cl)c(Cl)c1 (stereo not drawn) in this assay.
A) active

Q) Returns: the outcome recorded for CC1=C(C)C(=O)C(C(CCCCCC(=O)O)c2ccccc2)=C(C)C1=O (stereo not drawn) in this assay.
A) active

Q) Returns: the outcome recorded for Clc1ccc(C(Cn2ccnc2)OCc2ccc(Sc3ccccc3)cc2)c(Cl)c1 (stereo not drawn) in this assay.
A) active

Q) Returns: the outcome recorded for O=C(O)CCNC(=O)c1ccc(N=Nc2ccc(O)c(C(=O)O)c2)cc1 in this assay.
A) inactive

====

assay-overview: Quantitative High-Throughput drug screen in 47 multiple myeloma cell lines against the NCATS MIPE library collection: Karpas417_ECACC cell viability assay (AID 1918961); note: potency is the fitted concentration of half-maximal effect
experimental-setup: Karpas417 myeloma viability, CellTiter-Glo ATP luminescence, 48 h
Inconclusive results are not listed. Activity calls are given as the source filed them. The call rests on the fitted dose curve; in most records, active means well fitted cell-killing curve with a large enough effect; inconclusive means small, poorly fitted or top-dose-only effect, or effect the other way; inactive means no such curve, though single readings can be large or run the other way. Non-standard residues stand in square brackets, D forms with d. Residues, ends and D or L forms follow the SMILES beside them. *: point of attachment. Sta = CC(C)C[C@H](N)[C@@H](O)CC(=O)O; Isovaleryl = CC(C)CC(=O)*
reported-endpoint: Potency

Example compounds with recorded Potency:
c1cnc2cc3c(cc2n1)C1CNCC3C1	inactive
Nc1cc(C(Cl)=C(Cl)Cl)c(S(N)(=O)=O)cc1S(N)(=O)=O	inactive
COc1c(O)cc2c(c1O)[C@@H]1O[C@H](CO)[C@@H](O)[C@H](O)[C@H]1OC2=O	inactive
O=C(CCc1ccc(O)cc1)c1c(O)cc(O)cc1O	132 nM (active)
Cc1cc(O)c2c(c1)C(=O)c1cc(O)cc(O)c1C2=O	inactive
N[C@@H](Cc1cc(I)c(Oc2cc(I)c(O)c(I)c2)c(I)c1)C(=O)O	inactive
Cc1nc2n(c(=O)c1CCN1CCC(c3noc4cc(F)ccc34)CC1)CCCC2	inactive
CN(C)c1ccc2nc3ccc(=[N+](C)C)cc-3sc2c1	6620 nM (active)

Q) Look up Potency of C=CCc1cc(OC)c(O)c(C(=O)NCCO)c1 and report it.
A) inactive

Q) Look up Potency of O=C(NCC1CCCCN1)c1cc(OCC(F)(F)F)ccc1OCC(F)(F)F (stereo not drawn) and report it.
A) 74.3 nM (active)

Q) Look up Potency of Cc1cc(C2CCCCC2)n(O)c(=O)c1 and report it.
A) 2960 nM (active)

Q) Look up Potency of Nc1ccn([C@@H]2O[C@H](CO)[C@@H](O)C2O)c(=O)n1 (stereo partly drawn) and report it.
A) inactive

Q) Look up Potency of COCCCOc1ccnc(CS(=O)c2nc3ccccc3[nH]2)c1C (stereo not drawn) and report it.
A) inactive

Q) Look up Potency of O=C(c1ccccc1)c1ccc2n1CCC2C(=O)O (stereo not drawn) and report it.
A) inactive

Q) Look up Potency of Nc1nc(OCc2ccccc2)c2[nH]cnc2n1 and report it.
A) 16600 nM (active)

Q) Look up Potency of CC(S)C(=O)NCC(=O)O (stereo not drawn) and report it.
A) inactive

Q) Look up Potency of CC(C)c1nc(CN(C)C(=O)N[C@H](C(=O)N[C@@H](Cc2ccccc2)C[C@H](O)[C@H](Cc2ccccc2)NC(=O)OCc2cncs2)C(C)C)cs1 and report it.
A) inactive

Q) Look up Potency of C[C@H](Cn1cnc2c(N)ncnc21)OCP(=O)(O)O and report it.
A) inactive

Q) Look up Potency of Clc1ccc(C(Cn2ccnc2)OCc2ccsc2Cl)c(Cl)c1 (stereo not drawn) and report it.
A) 18700 nM (active)

Q) Look up Potency of Nc1nc(N)c(N=O)c(OCC2CCCCC2)n1 and report it.
A) 2640 nM (active)

Q) Look up Potency of CC(C)CC(=O)N[C@H](C(=O)N[C@H](C(=O)N[C@@H](CC(C)C)[C@@H](O)CC(=O)N[C@@H](C)C(=O)N[C@@H](CC(C)C)[C@@H](O)CC(=O)O)C(C)C)C(C)C (Isovaleryl-VV[Sta]A[Sta]-OH) and report it.
A) inactive

Q) Look up Potency of COc1cc2c(cc1OC)C1CC(=O)C(CC(C)C)CN1CC2 (stereo not drawn) and report it.
A) inactive

Q) Look up Potency of CCC[C@@H]1C[C@@H](C(=O)N[C@@H]([C@H]2O[C@H](SC)[C@H](O)[C@@H](O)[C@H]2O)[C@@H](C)O)N(C)C1 and report it.
A) inactive
